meta.source: the supplement of paper PMC8728848

- experimental target: Gal(b1-3)GalNAc(b1-4)Gal(b1-4)Glc
- experiment: glycan array binding signal (z-score within array); higher = stronger binding
- reported conditions: glycan notation: IUPAC condensed, linker removed
The sample as a whole holds a higher share of the strongest signals than the screen did.
reported endpoint: glycan array binding signal (z-score)

# binder, result
rows = [
    ("Epa15 (Candida glabrata) (protein) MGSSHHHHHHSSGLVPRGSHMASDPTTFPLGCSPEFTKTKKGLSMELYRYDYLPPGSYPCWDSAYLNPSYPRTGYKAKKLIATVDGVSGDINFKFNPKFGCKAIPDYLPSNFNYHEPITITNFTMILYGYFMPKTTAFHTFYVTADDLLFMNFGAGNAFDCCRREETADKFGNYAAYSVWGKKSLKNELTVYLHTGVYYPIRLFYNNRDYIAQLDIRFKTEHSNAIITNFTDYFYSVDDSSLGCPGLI", 2.64),
    ("Epa1 (Candida glabrata) (protein) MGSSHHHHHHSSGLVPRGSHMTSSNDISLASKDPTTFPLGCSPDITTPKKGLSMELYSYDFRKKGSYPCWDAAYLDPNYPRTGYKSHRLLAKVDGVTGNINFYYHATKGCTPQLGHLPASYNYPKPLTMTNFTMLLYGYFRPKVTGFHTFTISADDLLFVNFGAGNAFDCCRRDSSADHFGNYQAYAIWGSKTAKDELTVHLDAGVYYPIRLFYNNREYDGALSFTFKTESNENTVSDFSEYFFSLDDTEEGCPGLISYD", 9.89),
    ("RbmA (Vibrio cholerae), A0A2H4NFB8 (protein) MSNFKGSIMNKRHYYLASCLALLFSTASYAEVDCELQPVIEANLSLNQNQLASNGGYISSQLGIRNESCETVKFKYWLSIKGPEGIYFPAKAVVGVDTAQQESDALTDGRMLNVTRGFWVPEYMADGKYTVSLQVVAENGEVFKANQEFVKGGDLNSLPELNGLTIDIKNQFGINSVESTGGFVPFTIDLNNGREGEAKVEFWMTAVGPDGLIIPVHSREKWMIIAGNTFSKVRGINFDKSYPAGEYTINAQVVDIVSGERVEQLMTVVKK", 0.503),
]
